Entry source: PubChem BioAssay

- Tested on: Human papillomavirus type 1a E7 protein (residues 1-88)
- Experiment description: HPV1a E7 small-molecule binders, primary screen, biochemical, small-molecule microarray, residues 1-88, 635 nm (AID 1129)
- Condition notes: small-molecule microarray binding, fluorescence 635 nm; higher = more signal
Quantity measured: composite z-score
Please reply with the value in numeric form only.

Solved entries (count: 10):
I am curious: what composite z-score value has been reported for `O=C(O)[C@H]1C[C@H]2C(=O)N3CCC[C@H]3C(=O)N2[C@H]1c1ccc(O)cc1` ?
-0.94

I am curious: what composite z-score value has been reported for CCCC1(C(=O)OC)C=C2C(=C(c3ccccc3)C(=O)C2C)CN1 (stereo unspecified) ?
0.412

I am curious: what composite z-score value has been reported for `CCOC(=O)C1=C[C@@H](C(C)C)N(S(=O)(=O)c2ccc(C)cc2)[C@H]1c1ccccc1F` ?
1.2

I am curious: what composite z-score value has been reported for `CC(C)(C)OC(=O)CC[C@]1(C(N)=O)N=C(c2ccc(OCCCO)cc2)O[C@H]1c1ccccc1` ?
1.2

I am curious: what composite z-score value has been reported for `[N-]=[N+]=NCc1ccccc1[C@@H]1OC(c2ccc(OCCCO)cc2)=N[C@]1(CCS(=O)(=O)c1ccccc1)C(N)=O` ?
1.27

I am curious: what composite z-score value has been reported for `Cc1ccc(/C=C/C=O)cc1` ?
-0.872

I am curious: what composite z-score value has been reported for `C=C(CCCC)C(=O)CC[C@H](OC(=O)c1cccnc1)c1ccc(OCCO)cc1` ?
0.474

I am curious: what composite z-score value has been reported for `COCCOC(=O)N1C(=O)[C@@]2(c3cc(C#CC4(O)CCCCCC4)ccc31)[C@H](C(=O)Nc1nc3ccccc3s1)[C@H]1C(=O)O[C@H](c3ccccc3)[C@H](c3ccccc3)N1[C@@H]2c1ccc(OCCO)cc1` ?
1.16

I am curious: what composite z-score value has been reported for `COc1ccc(CCNC(=O)[C@@]2(c3ccc([N+](=O)[O-])cc3)CC(=O)N(CC34CC5CC(CC(C5)C3)C4)[C@@H]2c2ccc(CO)cc2I)cc1` ?
1.17

I am curious: what composite z-score value has been reported for `CC(C)[Si](C#C[Si](C(C)C)(C(C)C)C(C)C)(O[C@H](C)c1cn(Cc2ccccc2)nn1)C(C)C` ?
1.01

Next:
I am curious: what composite z-score value has been reported for `O=C(O)[C@@]1(CCS(=O)(=O)c2ccccc2)N=C(c2ccc(OCCCO)cc2)O[C@H]1c1ccccc1` ?
0.23

I am curious: what composite z-score value has been reported for C=CCC(OC(C)=O)[C@@H]1[C@@H](N(Cc2cc3ccccc3o2)C(=O)Cc2ccc(OC)cc2)c2cc(OCCCO)ccc2N1C(=O)c1ccc2ccccc2c1 (stereo partly specified) ?
-0.491

I am curious: what composite z-score value has been reported for CCC(CC)C(O)C1C=CC2C(=O)N(c3ccccc3)C(=O)C2N1Nc1ccccc1 (stereo unspecified) ?
1.25

I am curious: what composite z-score value has been reported for `COCCCNC(=O)[C@@]1(Cc2ccccc2CN=[N+]=[N-])N=C(c2ccc(OCCCO)cc2)O[C@H]1c1ccccc1CN=[N+]=[N-]` ?
1.19

I am curious: what composite z-score value has been reported for `C=C(CCCC)/C(=C/C[C@H](OC(C)=O)c1ccccc1OCCO)c1cnc2ccccc2c1` ?
0.545

I am curious: what composite z-score value has been reported for `C#CCOc1ccc(C[C@@H](C(=O)OC)N(CC#C)[C@@H](/C=C/C2CC2)[C@H](O)Cc2ccccc2)cc1` ?
-0.438
